Species: Rattus norvegicus
Test: Open TG-GATES - Regimen: Single
Assay type: toxicity, organism-based, Sprague-Dawley
Parameters: regimen Single, gender Male, age 6 weeks
Recorded conditions: in vivo, po, 0 mg/kg, 3 h, tissue Plasma, route gavage, dose level Control
I'd be grateful if you could share measured TBIL for these entries.
Numbers only here, please. The scale is mg/dL.

# input TBIL for O=C(O)c1ccccc1Nc1ccccc1 ?
# output 0.05

# input TBIL for CN(C/C=C/C#CC(C)(C)C)Cc1cccc2ccccc12 ?
# output 0.1

# input TBIL for CCCCNC(=O)NS(=O)(=O)c1ccc(C)cc1 [TOLBUTAMIDE] ?
# output 0.078

# input TBIL for CN(C)CCCN1c2ccccc2Sc2ccc(Cl)cc21 ?
# output 0.1

# input TBIL for CC(=O)[C@@]1(O)CC[C@H]2[C@@H]3C=C(Cl)C4=CC(=O)CC[C@]4(C)[C@H]3CC[C@@]21C ?
# output 0.02
